Test system: HepG2
Experiment: Cytotoxicity against human HepG2 cells assessed as reduction in cell viability incubated for 48 hrs by MTT assay
Assay type: functional, cell-based
Settings: HepG2, 48 h
# if measured IC50 < 600 nM: true  # else: false

Examples with answers:
{"TEST_SMILES": "COC(=O)/C(C#N)=C\\c1ccc(OC)c(OCCCOC(=O)[C@]2(C)CC[C@]3(C)CC[C@]4(C)C5=CC=C6C(=CC(=O)C(O)=C6C)[C@]5(C)CC[C@@]4(C)[C@@H]3C2)c1", "CATEGORY": "false"}
{"TEST_SMILES": "COC(=O)[C@]12CCC(C)(C)C[C@H]1[C@H]1C(=O)C=C3[C@@]4(C)C=C(C#N)C(=O)C(C)(C)[C@@H]4CC[C@@]3(C)[C@]1(C)CC2", "CATEGORY": "true"}
{"TEST_SMILES": "CC1=C(O)C(=O)C=C2C1=CC=C1[C@@]2(C)CC[C@@]2(C)[C@@H]3C[C@](C)(C(=O)O)CC[C@]3(C)CC[C@]12C", "CATEGORY": "false"}

Is IC50 of `COC(=O)/C=C/c1cc(OC)c(OCCOC(=O)[C@]2(C)CC[C@]3(C)CC[C@]4(C)C5=CC=C6C(=CC(=O)C(O)=C6C)[C@]5(C)CC[C@@]4(C)[C@@H]3C2)c(OC)c1` strictly below 600 nM?
false

Is IC50 of `COC(=O)/C(C#N)=C/c1ccc(OCCCOC(=O)[C@]2(C)CC[C@]3(C)CC[C@]4(C)C5=CC=C6C(=CC(=O)C(O)=C6C)[C@]5(C)CC[C@@]4(C)[C@@H]3C2)c(OC)c1` strictly below 600 nM?
false

Is IC50 of `COC(=O)/C(C#N)=C\c1ccc(OC)c(OCCOC(=O)[C@]2(C)CC[C@]3(C)CC[C@]4(C)C5=CC=C6C(=CC(=O)C(O)=C6C)[C@]5(C)CC[C@@]4(C)[C@@H]3C2)c1` strictly below 600 nM?
true

Is IC50 of `COC(=O)/C=C\c1ccc(OC)c(OCCCOC(=O)[C@]2(C)CC[C@]3(C)CC[C@]4(C)C5=CC=C6C(=CC(=O)C(O)=C6C)[C@]5(C)CC[C@@]4(C)[C@@H]3C2)c1` strictly below 600 nM?
false

Is IC50 of `COC(=O)/C=C/c1ccc(OCCCOC(=O)[C@]2(C)CC[C@]3(C)CC[C@]4(C)C5=CC=C6C(=CC(=O)C(O)=C6C)[C@]5(C)CC[C@@]4(C)[C@@H]3C2)c(OC)c1` strictly below 600 nM?
true

Is IC50 of `COC(=O)/C=C\c1ccc(OC)c(OCCOC(=O)[C@]2(C)CC[C@]3(C)CC[C@]4(C)C5=CC=C6C(=CC(=O)C(O)=C6C)[C@]5(C)CC[C@@]4(C)[C@@H]3C2)c1` strictly below 600 nM?
true

* * *

Reported pIC50 values for a set of compounds
System: A549
Experiment: cells
Conditions: Homo sapiens, A549, 48 h
Quick note: pIC50 values are minus log10 of concentrations in mol/L.

Known pIC50 results, listed for orientation:
{"COMPOUND": "CC1=C(O)C(=O)C=C2C1=CC=C1[C@@]2(C)CC[C@@]2(C)[C@@H]3C[C@](C)(C(=O)O)CC[C@]3(C)CC[C@]12C [CELASTROL]", "RECORDED_VALUE": 5.89}
{"COMPOUND": "COC(=O)/C=C\\c1ccc(OC)c(OCCOC(=O)[C@]2(C)CC[C@]3(C)CC[C@]4(C)C5=CC=C6C(=CC(=O)C(O)=C6C)[C@]5(C)CC[C@@]4(C)[C@@H]3C2)c1", "RECORDED_VALUE": 6.82}
{"COMPOUND": "COC(=O)/C=C\\c1ccc(OC)c(OCCCOC(=O)[C@]2(C)CC[C@]3(C)CC[C@]4(C)C5=CC=C6C(=CC(=O)C(O)=C6C)[C@]5(C)CC[C@@]4(C)[C@@H]3C2)c1", "RECORDED_VALUE": 6.15}
{"COMPOUND": "COC(=O)[C@]12CCC(C)(C)C[C@H]1[C@H]1C(=O)C=C3[C@@]4(C)C=C(C#N)C(=O)C(C)(C)[C@@H]4CC[C@@]3(C)[C@]1(C)CC2 [BARDOXOLONE METHYL]", "RECORDED_VALUE": 6.44}

Shifting focus to the compound that follows.
The reported value for `COC(=O)/C=C/c1ccc(OCCCOC(=O)[C@]2(C)CC[C@]3(C)CC[C@]4(C)C5=CC=C6C(=CC(=O)C(O)=C6C)[C@]5(C)CC[C@@]4(C)[C@@H]3C2)c(OC)c1` in terms of pIC50 is 6.25

* * *

Test system: A549
Experiment: cells
Conditions: Homo sapiens, A549, 48 h
Reported pIC50 values for a set of compounds
Quick note: pIC50 values are minus log10 of concentrations in mol/L.

{"TEST_SMILES": "COC(=O)/C=C/c1cc(OC)c(OCCOC(=O)[C@]2(C)CC[C@]3(C)CC[C@]4(C)C5=CC=C6C(=CC(=O)C(O)=C6C)[C@]5(C)CC[C@@]4(C)[C@@H]3C2)c(OC)c1", "pIC50": 5.97}
{"TEST_SMILES": "COC(=O)/C(C#N)=C/c1ccc(OCCCOC(=O)[C@]2(C)CC[C@]3(C)CC[C@]4(C)C5=CC=C6C(=CC(=O)C(O)=C6C)[C@]5(C)CC[C@@]4(C)[C@@H]3C2)c(OC)c1", "pIC50": 6.18}
{"TEST_SMILES": "COC(=O)/C=C/c1ccc(OCCOC(=O)[C@]2(C)CC[C@]3(C)CC[C@]4(C)C5=CC=C6C(=CC(=O)C(O)=C6C)[C@]5(C)CC[C@@]4(C)[C@@H]3C2)cc1", "pIC50": 6.22}
{"TEST_SMILES": "COC(=O)/C(C#N)=C\\c1ccc(OC)c(OCCCOC(=O)[C@]2(C)CC[C@]3(C)CC[C@]4(C)C5=CC=C6C(=CC(=O)C(O)=C6C)[C@]5(C)CC[C@@]4(C)[C@@H]3C2)c1", "pIC50": 6.11}

The reported value for `COC(=O)/C(C#N)=C\c1ccc(OC)c(OCCOC(=O)[C@]2(C)CC[C@]3(C)CC[C@]4(C)C5=CC=C6C(=CC(=O)C(O)=C6C)[C@]5(C)CC[C@@]4(C)[C@@H]3C2)c1` in terms of pIC50 is 6.34
